Source of measurements: patent US8563542B2

biological target: PLK1 (Homo sapiens); test: PLK1 protein kinase assay (CDC25C phosphorylation, [γ-32P]-ATP); format: biochemical; conditions: Table 2, PLK1 IC50; class symbols; read-out: PLK1 IC50
Sequence (P53350 whole entry): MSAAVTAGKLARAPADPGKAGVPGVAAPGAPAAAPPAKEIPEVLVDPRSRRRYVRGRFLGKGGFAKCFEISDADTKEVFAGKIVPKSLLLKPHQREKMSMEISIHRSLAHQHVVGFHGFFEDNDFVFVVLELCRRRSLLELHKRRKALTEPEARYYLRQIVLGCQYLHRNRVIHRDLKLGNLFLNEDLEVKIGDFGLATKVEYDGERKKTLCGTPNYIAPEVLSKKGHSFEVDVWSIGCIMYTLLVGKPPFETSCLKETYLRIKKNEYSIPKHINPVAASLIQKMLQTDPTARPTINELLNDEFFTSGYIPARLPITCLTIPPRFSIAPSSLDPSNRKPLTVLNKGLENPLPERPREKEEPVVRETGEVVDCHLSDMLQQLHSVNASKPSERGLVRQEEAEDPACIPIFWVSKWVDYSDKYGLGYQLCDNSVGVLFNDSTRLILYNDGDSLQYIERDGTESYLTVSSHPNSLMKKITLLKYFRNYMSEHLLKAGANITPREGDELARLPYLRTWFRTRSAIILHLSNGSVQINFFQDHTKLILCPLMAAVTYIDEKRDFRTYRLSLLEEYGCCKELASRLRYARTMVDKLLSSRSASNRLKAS
pIC50: −log10 of the molar value.
This section presents compounds with their documented pIC50 values.

For orientation, consider the following solved cases.
[[record]]
structure = "COc1ccc(N2CCC(=O)N(C)c3cnc(Nc4ccc(C(=O)NC5CCN(C)CC5)cc4OC)nc32)cc1"
value_kind = "pIC50"
reading = "> 6.00"

[[record]]
structure = "CN1C(=O)CCN(C2CCCC2)c2nc(Nc3ccc(C(=O)O)cc3)ncc21"
value_kind = "pIC50"
reading = "> 7.00"

[[record]]
structure = "COc1cc(C(=O)NC2CC(C)(C)N(C)C(C)(C)C2)ccc1Nc1ncc2c(n1)N(c1ccccc1C)CCC(=O)N2C"
value_kind = "pIC50"
reading = "> 5.00"

[[record]]
structure = "CNC(=O)CCN1CCC(=O)N(C)c2cnc(Nc3ccc(C(=O)NC4CCN(C)CC4)cc3OC)nc21"
value_kind = "pIC50"
reading = "> 6.00"

[[record]]
structure = "CN1C(=O)CCN(C2CCCC2)c2nc(Nc3ccc(S(=O)(=O)NCc4ccccc4)cc3)ncc21"
value_kind = "pIC50"
reading = "> 5.00"


Item CN1C(=O)CCN(C2CCCC2)c2nc(Nc3cccc(S(=O)(=O)N4CCCC4)c3)ncc21 has what recorded pIC50? > 6.00

Entry CC(=O)Nc1ccc(Nc2ncc3c(n2)N(C2CCCC2)CCC(=O)N3C)cc1Cl : reported pIC50 = ? > 5.00
